# Tested Target: His6-AspH315–758 (human aspartate/asparagine-β-hydroxylase, AspH) (Homo sapiens, UniProt Q12797)
# Construct: N-Terminally His6-tagged human AspH315–758 (His6-AspH315–758) was produced in E. coli BL21 (DE3) cells; made in house; host or cells: E. coli BL21 (DE3), pET-28a(+) vector
# Sequence (Q12797 315-758): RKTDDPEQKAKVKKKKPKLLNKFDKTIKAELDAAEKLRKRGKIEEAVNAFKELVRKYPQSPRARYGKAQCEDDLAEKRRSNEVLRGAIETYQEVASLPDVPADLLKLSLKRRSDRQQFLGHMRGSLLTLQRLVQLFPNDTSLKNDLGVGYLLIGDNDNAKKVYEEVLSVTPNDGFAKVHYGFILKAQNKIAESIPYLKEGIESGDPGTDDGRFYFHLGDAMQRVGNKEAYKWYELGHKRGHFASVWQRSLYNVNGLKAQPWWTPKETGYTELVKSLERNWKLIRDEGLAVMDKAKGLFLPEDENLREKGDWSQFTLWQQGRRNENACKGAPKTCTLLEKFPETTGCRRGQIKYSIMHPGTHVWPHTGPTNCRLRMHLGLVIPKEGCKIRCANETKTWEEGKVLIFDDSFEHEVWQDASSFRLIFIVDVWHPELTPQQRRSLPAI
# Experimental Protocol: SPE-MS AspH inhibition assay (LOPAC screen at fixed 20 μM and IC50 dose-response), hydroxylation of cyclic peptide hFX-CP101–119
# Type: biochemical
# Stated Conditions: LOPAC compound at 20uM, plate 3; conversion of substrate peptide
Where a name gives a salt, the structure may show the parent alone.
// reported Plate 3 (% conversion) for each item listed

# Compound, Plate 3 (% conversion), %
measured = [
    ("CCCC(C(=O)OCCN(CC)CC)(c1ccccc1)c1ccccc1.Cl [SKF-525A hydrochloride]", 49.23),
    ("CC(CCc1ccccc1)NCC(O)c1ccc(O)c(C(N)=O)c1 (stereo not drawn) [Labetalol hydrochloride]", 36.38),
    ("COCC(=O)O[C@]1(CCN(C)CCCc2nc3ccccc3[nH]2)CCc2cc(F)ccc2[C@@H]1C(C)C [Mibefradil dihydrochloride]", 62.31),
    ("Cc1oncc1C(=O)Nc1ccc(C(F)(F)F)cc1 [Leflunomide]", 37.93),
    ("CNC1(C)C2CCC(C2)C1(C)C (stereo not drawn) [Mecamylamine hydrochloride]", 34.21),
    ("CCN(CC)CCNC(=O)c1cc(Cl)c(N)cc1OC.Cl [Metoclopramide hydrochloride]", 35.20),
    ("O=[N+]([O-])c1cccc2cn[nH]c12 [7-Nitroindazole]", 35.80),
    ("CNC[C@H](O)c1cccc(O)c1 [Phenylephrine hydrochloride]", 35.74),
    ("CCOC(=O)[C@H](CCc1ccccc1)N[C@@H](C)C(=O)N1[C@H](C(=O)O)C[C@H]2CCCC[C@@H]21 [Trandolapril]", 36.50),
    ("CC(CCc1ccccc1)NC(C)C(O)c1ccc(O)cc1 (stereo not drawn) [Nylidrin hydrochloride]", 36.07),
    ("COCc1nc2c([nH]1)c(=O)n(C)c(=O)n2CC(C)C", 35.26),
    ("Cl.NCCS [Cysteamine hydrochloride]", 40.01),
    ("O=C(Nc1ccncc1)c1cc([N+](=O)[O-])ccc1Cl [T0070907]", 31.53),
    ("c1ccc2c(c1)OCC(C1=NCCN1)O2 (stereo not drawn) [Idazoxan hydrochloride]", 39.66),
    ("Cc1cc(C(C)(C)C)c(O)c(C)c1CC1=NCCN1 [Oxymetazoline hydrochloride]", 41.41),
    ("C[C@](N)(CCP(=O)(O)O)C(=O)O.Cl [(S)-MAP4 hydrochloride]", 32.97),
    ("CCCN(CCC)C(=O)C(CCC(=O)O)NC(=O)c1ccccc1 (stereo not drawn) [Proglumide]", 27.88),
    ("CC(C)NCC(O)c1cc(O)cc(O)c1.CC(C)NCC(O)c1cc(O)cc(O)c1.O=S(=O)(O)O (stereo not drawn) [Metaproterenol hemisulfate]", 40.68),
]
